Entry source: patent US9737504B2

ASSAYED_TARGET: human DHOD (Homo sapiens)
Sequence (Q02127 whole entry): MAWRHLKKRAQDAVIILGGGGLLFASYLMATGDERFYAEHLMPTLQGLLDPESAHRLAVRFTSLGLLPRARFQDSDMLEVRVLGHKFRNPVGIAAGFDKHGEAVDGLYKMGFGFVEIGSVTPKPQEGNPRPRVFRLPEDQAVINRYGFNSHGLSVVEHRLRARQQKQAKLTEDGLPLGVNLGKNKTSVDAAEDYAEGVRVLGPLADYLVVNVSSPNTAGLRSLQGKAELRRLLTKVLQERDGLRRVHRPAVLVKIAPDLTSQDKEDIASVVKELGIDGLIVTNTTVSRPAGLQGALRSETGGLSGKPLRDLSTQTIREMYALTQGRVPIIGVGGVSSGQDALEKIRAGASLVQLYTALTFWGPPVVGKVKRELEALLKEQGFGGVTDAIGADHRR
ASSAY_NOTES: Measurement of DHOD inhibitory activity (DCIP reduction, end point assay)
Type: biochemical
ASSAY_CONDITIONS: read-out: IC50 (nM) human DHOD (HsDHOD)
ENDPOINT_LABEL: IC50 (nM)

P = COC(=O)/C(C)=C/CC/C(C)=C/Cc1c(O)c(Cl)c(C)c(C=O)c1O [275-10-COOMe]
Q = CC(=O)OC(C)/C(C)=C/CC/C(C)=C/Cc1c(O)c(Cl)c(C)c(C=O)c1O (stereo not shown) [277-11-OAc]
R = C/C(=C\Cc1c(O)c(Cl)c(C)c(C=O)c1O)CCCCOC(=O)C(C)(C)C [264-11-OPiv]
Rank by decreasing IC50 the items listed here. When ranking, write the labels in the order the request describes. R, Q, P
(R: 123 nM, Q: 6.5 nM, P: 4.2 nM)
